ASSAY: Plasma protein binding, dog
Format: in vitro ADME
CONDITION SET: plasma; in vitro, dog; read-out: fu (fraction unbound to plasma protein)

| COMPOUND | fraction unbound |
| --- | --- |
| COc1cc(C)[nH]c(=O)c1CNC(=O)c1c(C)n([C@H](C)C2CCN(CC(F)(F)F)CC2)c2ccccc12 [compound 13] | 0.089 |

###

ASSAY: Plasma protein binding, human
Format: in vitro ADME
MEASUREMENT KIND: PPB (% bound)

| MOLECULE | MEASUREMENT KIND | UNIT | ASSAY VALUE |
| --- | --- | --- | --- |
| COc1cc(C)[nH]c(=O)c1CNC(=O)c1c(C)n([C@H](C)C2CCN(CC(C)(F)F)CC2)c2ccccc12 [compound 10] | PPB | % bound | 94.7 |
| COc1cc(C)[nH]c(=O)c1CNC(=O)c1c(C)n([C@H](C)C2CCN(CC(F)(F)F)CC2)c2ccccc12 [compound 13] | PPB | % bound | 92.8 |
| COc1cc(C)[nH]c(=O)c1CNC(=O)c1c(C)n([C@H](C)C2CCN(CCC(F)(F)F)CC2)c2ccccc12 [compound 9] | PPB | % bound | 95.9 |
| COc1cc(C)[nH]c(=O)c1CNC(=O)c1c(C)n([C@H](C)C2CCN(CC(F)F)CC2)c2ccccc12 [compound 12] | PPB | % bound | 83.3 |

###

STUDY TARGET: PRDM9 (Homo sapiens, UniProt Q9NQV7)
Sequence (Q9NQV7 whole entry): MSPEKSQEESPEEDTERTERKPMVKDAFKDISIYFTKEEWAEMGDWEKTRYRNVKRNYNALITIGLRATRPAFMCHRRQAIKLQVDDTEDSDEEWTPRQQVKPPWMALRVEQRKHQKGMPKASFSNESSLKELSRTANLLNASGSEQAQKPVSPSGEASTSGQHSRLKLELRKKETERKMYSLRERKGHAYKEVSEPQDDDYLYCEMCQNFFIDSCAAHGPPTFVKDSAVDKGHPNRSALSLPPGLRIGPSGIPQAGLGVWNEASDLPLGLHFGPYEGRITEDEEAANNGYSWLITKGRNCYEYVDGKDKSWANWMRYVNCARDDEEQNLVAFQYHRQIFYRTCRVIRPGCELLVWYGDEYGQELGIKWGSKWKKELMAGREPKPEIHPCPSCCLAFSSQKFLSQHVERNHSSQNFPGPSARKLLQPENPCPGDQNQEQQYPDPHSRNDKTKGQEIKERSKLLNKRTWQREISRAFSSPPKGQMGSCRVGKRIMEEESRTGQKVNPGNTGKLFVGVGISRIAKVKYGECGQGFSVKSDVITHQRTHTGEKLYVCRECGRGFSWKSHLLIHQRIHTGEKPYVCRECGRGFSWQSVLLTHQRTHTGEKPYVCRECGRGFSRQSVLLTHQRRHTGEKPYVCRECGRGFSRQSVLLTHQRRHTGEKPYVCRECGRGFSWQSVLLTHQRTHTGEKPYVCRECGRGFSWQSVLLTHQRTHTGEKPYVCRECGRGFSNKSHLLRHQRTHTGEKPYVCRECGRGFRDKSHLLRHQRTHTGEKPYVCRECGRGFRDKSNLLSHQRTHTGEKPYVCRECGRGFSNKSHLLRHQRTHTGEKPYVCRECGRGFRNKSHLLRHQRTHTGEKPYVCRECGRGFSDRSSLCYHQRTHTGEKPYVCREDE
pIC50: −log10 of the molar value.

| COMPOUND | pIC50 |
| --- | --- |
| CN1C(=O)[C@@]23C[C@]4([C@]56C[C@@]78SS[C@@](CO)(C(=O)N7[C@H]5Nc5ccccc56)N(C)C8=O)c5ccccc5N[C@@H]4N2C(=O)[C@]1(CO)SS3 [Chaetocin, reference compound] | 5.32 |
